Assay: chemical genetic growth profiling, strain panel (AID 1159580);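 note: tested at 20 µM; growth read once vehicle control cultures reached saturation at 30 °C; 1 = growth at the plate median or of vehicle wells; lower values mean less growth of the strain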
Details: S. cerevisiae deletion strains, growth OD, locus YGR229C, strain SMI1, active compounds read low
Hit rate of the full screen: of about 5,500 compounds, about 2,000 (36%) were called active. About 18% were inconclusive and are not listed. This is one part of the list. *1 amine or outer side, *2 acyl side, *3 side chain or, on linkers, in order; H or OH if unused. Where a SMILES comes first, the peptide text is derived from it. Bridges are numbered along the chain shown (N, C = ends). [ ]: non-standard residue; d: D form. The star is where a group is joined. ξ: configuration not given here. ΔAla(E,3-NHCONH2) = NC(=O)N/C=C(/N)C(=O)O; X2 = NC1=NCCC(C(N[*:1])C(=O)[*:2])N1; Octanoyl(6-Me) = CCC(C)CCCCC(=O)*; ξβ3hOrn = NCCCC(N)CC(=O)*; Dab = NCC[CH](N)C(=O)O; Dap = NC[CH](N)C(=O)O
normalized growth by entry:
// return just the number, without any unit appended

Use these answered entries as a reference point.
molecule	normalized growth
NC(C(=O)O)c1cc(=O)[nH]o1 (stereo not drawn)	1.04
C#C[C@]1(O)CC[C@H]2[C@@H]3CCC4=Cc5oncc5CC4(C)[C@H]3CCC21C (stereo partly drawn)	1.02

## Task Recall and state the measured normalized growth for `c1ccc([C@H]2CN3CCSC3=N2)cc1` .
## Result 0.994

## Task Write down normalized growth measured for item NCCCC(N)CC(=O)NCC1NC(=O)C(CO)NC(=O)C(N)CNC(=O)C(C2CCN=C(N)N2)NC(=O)/C(=C\NC(N)=O)NC1=O (stereo not drawn) (H-[Dap]S[Dap](ξβ3hOrn)[ΔAla(E,3-NHCONH2)][X2]; lactam 1-C; configuration not given here)
## Result 1.02

## Task Note normalized growth for the molecule shown: `Cn1c(=O)c(-c2ccccc2)c(O)c2ccccc21`
## Result 0.953

## Task State, in one line, measured normalized growth of `O=C(c1cccc([N+](=O)[O-])c1)c1cc2cc(Br)cc(Br)c2o1`
## Result 1

## Task Return normalized growth (reported value) for this molecule: `CN(C)S(=O)(=O)c1ccc2c(c1)/C(=C/c1cc3c([nH]1)CCCC3)C(=O)N2`
## Result 0.972

## Task Output measured normalized growth for this item: CCC(C)CCCCC(=O)NC(CCN)C(=O)NC(C(=O)NC(CCN)C(=O)NC1CCNC(=O)C(C(C)O)NC(=O)C(CCN)NC(=O)C(CCN)NC(=O)C(CC(C)C)NC(=O)C(Cc2ccccc2)NC(=O)C(CCN)NC1=O)C(C)O (stereo not drawn) ({Octanoyl(6-Me)}-[Dab]T[Dab][Dab][Dab]FL[Dab][Dab]T; lactam 4-C; configuration not given here)
## Result 0.976

###

// reported normalized growth per item
Assay: chemical genetic growth profiling, strain panel (AID 1159580);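 note: tested at 20 µM; growth read once vehicle control cultures reached saturation at 30 °C; 1 = growth at the plate median or of vehicle wells; lower values mean less growth of the strain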
Conditions: S. cerevisiae deletion strains, growth OD, locus YJR066W, strain TOR1, active compounds read low
Screen size: about 5,500 compounds; about 2,000 (36%) were called active. Another 18% or so got no clear call; they are omitted. Some of the results follow.
Lab note: record just the number, no unit beside it.

## Task Give normalized growth for `CCN(CC)CCNC(=O)c1cc(Cl)c(N)cc1OC`
## Result 1

## Task State, in one line, measured normalized growth of `N#C/C(=N/Nc1cccc(C(F)(F)F)c1)C(=O)c1csc(-c2cccnc2)n1`
## Result 0.343

## Task # return recorded normalized growth for input `COc1cc(N2C(=O)C=CC2=O)cc(OC)c1OC`
## Result 0.133

## Task Please give measured normalized growth of the following entry: `CCOC(=O)c1cnc2c(c(C)nn2C)c1Sc1nnc(SC)s1`
## Result 0.644

## Task Return normalized growth for the following compound: `COc1ccc2c(c1OC)OC[C@@H](c1ccc(OC)c(OC)c1OC)C2`
## Result 0.983

## Task For the compound CNC(Cc1c[nH]c2ccccc12)C(=O)O (stereo not drawn) , report normalized growth.
## Result 0.932

## Task # return recorded normalized growth for entry `NC(=O)NO`
## Result 0.931

###

Assay: chemical genetic growth profiling, strain panel (AID 1159580);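 note: tested at 20 µM; growth read once vehicle control cultures reached saturation at 30 °C; 1 = growth at the plate median or of vehicle wells; lower values mean less growth of the strain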
Conditions: S. cerevisiae deletion strains, growth OD, locus YOR061W, strain CKA2
In all, about 5,500 compounds went through this assay and about 2,000 (36%) were called active. About 18% were inconclusive and are not listed. Cut-off read from the data, not from the text of the source: active = normalized growth mostly below about 0.91 (no sharp cut-off); inconclusive = no clear call, values can overlap the other calls; inactive = mostly above about 0.92. This is one part of the list.
In this exercise, the only acceptable responses are active, inactive

## Task Name the outcome recorded for CC1=CC(=O)C2=C(C)CC(O)C3C(C)C(=O)OC3C12 (centres undefined) in the assay.
## Result inactive

## Task Tell me the assay call for `COc1cccc(O)c1O` please.
## Result inactive

## Task Lab log entry: `NC(N)=NC(N)=Nc1ccccc1` — outcome as called in the assay?
## Result inactive

## Task Query: recorded result category for `C=C(C)[C@H]1Cc2c(ccc3c2O[C@@H]2COc4cc(OC)c(OC)cc4[C@@H]2C3=O)O1` in this test
## Result inactive

## Task Returns: the outcome recorded for COc1cc2c(cc1O)CCNC2C (centres undefined) in this assay.
## Result inactive

## Task Recorded test call requested for `COc1cc(N2C(=O)C=CC2=O)cc(OC)c1OC`
## Result inactive

## Task Call for entry `O=C(O)c1cc(=O)c2c(Cl)cc(Cl)cc2[nH]1` :
## Result inactive

## Task Test call for this compound, please: `CCNc1nc(Cl)nc(NCC)n1`
## Result inactive

## Task Tell me the recorded outcome of this test for `Cc1cc(=O)n(-c2ccccc2)n1C` .
## Result inactive

## Task Hello, I am checking results. What call was entered for CC(=O)OCC1=C(C(=O)O)N2C(=O)[C@@H](NC(=O)CCCC(N)C(=O)O)C2SC1 (some centres undefined) ?
## Result inactive

## Task Hi, do you know how `COc1cc(-c2coc3cc(O[C@@H]4O[C@H](CO)[C@@H](O)[C@H](O)[C@H]4O)c(OC)c(O)c3c2=O)cc(O)c1OC` came out in this test?
## Result inactive

## Task Please indicate how the test categorized CN1c2ccccc2C(C)(C)C12C=Cc1cc(O)ccc1O2 (centres undefined) .
## Result inactive

## Task For this compound, state the assay outcome: `O=c1oc2c(O)c(O)cc3c(=O)oc4c(O)c(O)cc1c4c23`
## Result active

## Task Assay outcome for `O=C(O)c1cc(=O)c2cccc(O)c2[nH]1` : what was it?
## Result inactive

## Task Would you mind telling me which call this test gave `CN(C)CCc1c[nH]c2ccc(CS(=O)(=O)N3CCCC3)cc12` ?
## Result inactive

## Task Any idea what this test logged for `CCCc1nc2c(C)cc(-c3nc4ccccc4n3C)cc2n1Cc1ccc(-c2ccccc2C(=O)O)cc1` ?
## Result inactive

## Task GET /call?item= COc1cc2c(cc1OC)[C@@H]1C(=O)c3ccc4c(c3O[C@@H]1CO2)CC(C(C)C)O4 (some centres undefined) returns the recorded outcome of this test.
## Result inactive

## Task Would you mind telling me which call this test gave `O=C(CCc1ccc(O)cc1)c1c(O)cc(O)cc1O[C@@H]1O[C@H](CO)[C@@H](O)[C@H](O)[C@H]1O` ?
## Result inactive

## Task What call does the record list for `CN1CCN(CCC=C2c3ccccc3Sc3ccc(S(=O)(=O)N(C)C)cc32)CC1` ?
## Result inactive

## Task Could you please tell me the result logged for `COc1cc(NS(=O)(=O)c2ccc(N)cc2)ncn1` in this assay?
## Result inactive

## Task // outcome(item) with item = `CC(=O)c1cc2c(cc1O)OC(C)(C)C=C2`
## Result inactive

## Task How did this test come out for CC(N)C(O)c1ccc(O)c(O)c1 (centres undefined) ?
## Result inactive

## Task Test call for this compound, please: `c1ccc([C@H]2CN3CCSC3=N2)cc1`
## Result inactive

## Task Entry `NC(=O)NO` : call = ?
## Result inactive

###

Assay: chemical genetic growth profiling, strain panel (AID 1159580);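 note: tested at 20 µM; growth read once vehicle control cultures reached saturation at 30 °C; 1 = growth at the plate median or of vehicle wells; lower values mean less growth of the strain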
Settings: S. cerevisiae deletion strains, growth OD, locus YLR342W, strain FKS1
About 2,000 (36%) of roughly 5,500 compounds were called active. Inconclusive results (about 18%) are left out. Cut-off read from the data, not from the text of the source: active = normalized growth mostly below about 0.91 (no sharp cut-off); inconclusive = no clear call, values can overlap the other calls; inactive = mostly above about 0.92. The list shows a part of the results.
Entry note: the call must match one of 1 (active), 0 (inactive)

Completed entries (count: 4):
compound	label
COC1(C)CCC2OC2(C)CCC2C1CC2(C)C (stereo not drawn)	0
CC[C@H]1CN2CCc3cc(OC)c(OC)cc3C2C[C@@H]1CC1NCCc2cc(OC)c(OC)cc21 (stereo partly drawn)	0
C#C[C@]1(O)CCC2C3CCC4=Cc5oncc5C[C@]4(C)C3CC[C@@]21C (stereo partly drawn)	1
CN(C)C(=N)N=C(N)N	0

## Task Assay outcome for CC(=O)O[C@H]1CC[C@]2(C)C3CC[C@@]4(C)C(CC5O[C@@]6(CCC(C)CO6)[C@@H](C)C54)C3CC[C@@H]2C1 (stereo partly drawn) : what was it?
## Result 0

## Task In this assay, the call recorded for C[C@]12CCC(=O)C=C1CCC1C2[C@@H](O)C[C@@]2(C)C1CC[C@]2(O)C(=O)COC(=O)CCC(=O)O (stereo partly drawn) was what?
## Result 0

## Task For this compound, state the assay outcome: CC(=O)OC1CCC2(C)C3CC(=O)C4(C)C(CC5OC6(CCC(C)CO6)[C@@H](C)C54)C3CC[C@H]2C1 (stereo partly drawn)
## Result 0

## Task Which result was noted for this compound in the test: CO[C@H]1C[C@H](O[C@H]2[C@H](C)[C@@H](OC3O[C@H](C)C[C@H](N(C)C)[C@H]3OC(C)=O)[C@@H](C)C[C@]3(CO3)C(=O)[C@H](C)[C@@H](OC(C)=O)[C@@H](C)[C@@H](C)OC(=O)[C@@H]2C)O[C@@H](C)[C@@H]1OC(C)=O (stereo partly drawn)
## Result 0
